Kindly supply the reported inhibition values for the records listed here.
Assay: 384-well plate pilot, post-Golgi transport modulator project, inhibition of yeast transport mutant growth (AID 636)
Details: absorbance 615 nm, about 18 h, stronger effect = higher value
The source made the active and inactive calls. Rule as the data show it: active = inhibition above about 31%; inactive = the rest.

Hello, please tell me recorded inhibition for this one: COc1ccc(Cl)cc1NC(=O)CSc1nncn1-c1cccnc1
-7.07% (inactive)

Hello, please tell me recorded inhibition for this one: O=C(Nc1ccncc1)C1c2ccccc2Oc2ccccc21
-2.3% (inactive)

Hello, please tell me recorded inhibition for this one: Cc1nc(CCNS(=O)(=O)c2cccs2)cs1
7.92% (inactive)

Hello, please tell me recorded inhibition for this one: CCOc1cc(C2NC(=O)N(C)C(C)=C2C(=O)OC)cc(Br)c1O (stereo unspecified)
-4.73% (inactive)

Hello, please tell me recorded inhibition for this one: O=C1C2CCCN2C(c2ccccc2)N1c1ccc(Cl)cc1 (stereo unspecified)
-4.67% (inactive)

Hello, please tell me recorded inhibition for this one: CCCCn1cnc2c1c(=O)n(C)c(=O)n2C
3.24% (inactive)

Cited source for all entries: PubChem BioAssay
